Tested target: PLA2 from bee venom (Apis mellifera)
Sequence (P00630 34-167 limits assumed): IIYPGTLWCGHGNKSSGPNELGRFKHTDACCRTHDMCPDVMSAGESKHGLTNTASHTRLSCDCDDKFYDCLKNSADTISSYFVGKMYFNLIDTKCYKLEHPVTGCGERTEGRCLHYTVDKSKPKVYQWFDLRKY
Measurement type: IC50

Look up IC50: CCCCCCCCCCCCCCCCOCC(COCC(F)(F)F)OP(=O)(O)OC (stereo not shown)
~2 µM

These entries and their values trace back to patent US20050026235A1.
